Recorded values, source paper PMC12040169.

Listing of entries alongside the reported viability at 28.5 h, 10 µM.
- Method description: in vitro
- Run conditions: human, hela cells, % viability
Provide only the numeric value, understood in %.

Worked examples follow.
1) COc1ccc(C(=O)C2=C(O)C(=O)N(CCN3CCOCC3)C2c2ccc(Cl)cc2)cc1 (stereo not drawn): 103
2) CC(C)C[C@@H]1N[C@H](C(=O)NC2CCC2)Cc2cn(Cc3nccn3C)c3cccc1c23: 101
3) CCC(/C=C1\Oc2ccc(OC)cc2N1C)=C\c1sc2ccccc2[n+]1CCCS(=O)(=O)[O-]: 90.3
4) O=C(C1=C(O)C(=O)N(Cc2cccnc2)C1c1cccc([N+](=O)[O-])c1)c1ccccc1 (stereo not drawn): 107
5) COc1ccc(CN2C(=S)N(c3ccc(OC)cc3)[C@H]3[C@@H]2[C@H]2OC(=O)[C@@H]3C[C@H]2O)cc1: 85.4

The value of viability at 28.5 h, 10 µM measured for the molecule O=C(CC1(O)C(=O)N(CCc2ccccc2)c2ccc(Br)cc21)c1ccncc1 (stereo not drawn) turned out to be 90.2

====

- Method description: in vitro
- Run conditions: human, hela cells, % viability
Listing of entries alongside the reported viability at 28.5 h, 10 µM.
Provide only the numeric value, understood in %.

Worked examples follow.
1) O=C(NCCN1CCOCC1)c1cc(-c2ccc(Cl)cc2)nc2ccccc12: 96.6
2) C=C(C)CNC(=O)c1cc(-c2ccc(OC)cc2)cnc1NCC1CC1: 97.7

The value of viability at 28.5 h, 10 µM measured for the compound O=[N+]([O-])c1ccc(N(CCO)CCO)c2nonc12 turned out to be 98.7

The value of viability at 28.5 h, 10 µM measured for the compound Cc1csc(-c2cn3ccnc3c(N3CCN(c4ccccn4)CC3)n2)c1 turned out to be 95.6

The value of viability at 28.5 h, 10 µM measured for the compound CC(C)(C)NS(=O)(=O)c1cccc2nonc12 turned out to be 115

The value of viability at 28.5 h, 10 µM measured for the compound O=C(O)/C(O)=C/C(=O)c1ccc(Cl)cc1 turned out to be 111

The value of viability at 28.5 h, 10 µM measured for the compound O=C(O)CSc1nc(O)c2c(-c3ccccc3)csc2n1 turned out to be 107

====

Listing of entries alongside the reported viability at 28.5 h, 10 µM.
- Method description: in vitro
- Run conditions: human, hela cells, % viability
Provide only the numeric value, understood in %.

Worked examples follow.
1) C[C@H](Nc1cncc(-c2cccc(C(=O)NCCO)c2)n1)c1ccccc1: 108
2) O=C(Nc1nnc(COc2ccccc2)s1)c1cccc2ccccc12: 97.6
3) COc1ccccc1CNC(=O)N[C@@H](CC(C)C)C(=O)O: 92.9

The value of viability at 28.5 h, 10 µM measured for the molecule Cc1cc2c(cc1S(=O)(=O)NCc1ccccc1)NC(=O)CO2 turned out to be 85.2

The value of viability at 28.5 h, 10 µM measured for the molecule CCC(c1ccc(F)cc1)N(C)C(=O)Cn1cccc(C(=O)Nc2ccc(F)cc2)c1=O (centres unmarked) turned out to be 88.7

The value of viability at 28.5 h, 10 µM measured for the molecule COCCc1ccccc1NC1CCN(c2nccs2)CC1 turned out to be 91.2

The value of viability at 28.5 h, 10 µM measured for the molecule COc1ccc(C(=O)Nc2ccccc2N2CCN(C)CC2)c(OC)c1 turned out to be 90.4

The value of viability at 28.5 h, 10 µM measured for the molecule O=C(O)c1ccc(C(=O)c2c3c(=O)n(-c4ccccc4C(=O)O)c(=O)c3cc3c(=O)n(-c4ccccc4C(=O)O)c(=O)c23)cc1 turned out to be 91.7

The value of viability at 28.5 h, 10 µM measured for the molecule CCOC(=O)c1sc(Cl)nc1C(F)(F)F turned out to be 103

The value of viability at 28.5 h, 10 µM measured for the molecule O=C1CC(N2CCN(CCc3ccncc3)CC2)C(=O)N1c1ccc(Cl)cc1 (centres unmarked) turned out to be 85.6

====

Listing of entries alongside the reported viability at 28.5 h, 10 µM.
- Method description: in vitro
- Run conditions: human, hela cells, % viability
Provide only the numeric value, understood in %.

Worked examples follow.
1. COc1ccccc1NS(=O)(=O)c1cc(S(=O)(=O)Nc2ccccc2OC)c(C)cc1C: 92
2. Nc1ncncc1-c1ccc(Cl)cc1: 90.9
3. Cc1noc(C)c1C(=O)N1CCC[C@@H](C(=O)c2ccccc2F)C1: 90.5
4. CC1(C)CC(N2CNC(=N)N(C#N)C2)CC(C)(C)N1: 90.7
5. COc1cc(C(=O)N2CCC3(CC2)NC(=O)c2cc(C)ccc2O3)cc(OC)c1C: 91
6. Cn1nc(C(=O)NCc2ccccc2)cc1C(=O)NCc1ccccc1: 92

Please examine the following record next.
The value of viability at 28.5 h, 10 µM measured for the compound CCN1CCCN(c2cc(OCc3ccc(Cl)c(Cl)c3)ncn2)CC1 turned out to be 92.3

====

Listing of entries alongside the reported viability at 28.5 h, 10 µM.
- Method description: in vitro
- Run conditions: human, hela cells, % viability
Provide only the numeric value, understood in %.

Worked examples follow.
1. COc1cncc(-c2cc(N3CCC(N4CCCCC4)CC3)ncn2)c1 [CBK090964]: 90.3
2. CCc1nnc(SCc2ccc(CSc3nnc(CC)n3N)cc2)n1N [CBK265689]: 106
3. COc1cc(CN2CCC(C)CC2)c([N+](=O)[O-])cc1OC [CBK261911]: 90

The value of viability at 28.5 h, 10 µM measured for the compound CCOC(=O)CNC(=O)c1cc(Br)c(OC)c(OC)c1 [CBK058454] turned out to be 116

The value of viability at 28.5 h, 10 µM measured for the compound C=CCn1c(Cc2csc(NC(=O)c3ccc(OC)c(OC)c3)n2)n[nH]c1=S [CBK295324] turned out to be 102

====

Listing of entries alongside the reported viability at 28.5 h, 10 µM.
- Method description: in vitro
- Run conditions: human, hela cells, % viability
Provide only the numeric value, understood in %.

Worked examples follow.
1) CCN1CCCC1Cn1c(=S)[nH]c2ccccc2c1=O (centres unmarked): 92.8
2) Cc1ccc(C)c(-n2nnnc2SCC(=O)c2ccc(Cl)cc2Cl)c1: 98.1
3) Cc1nc2c(c(=O)[nH]1)CN(Cc1c(C)oc3ccccc13)CC2: 94.8
4) COCCNC(=O)c1cc(-c2ccccc2)cnc1N(C)S(C)(=O)=O: 85.8
5) CC1(C)CC(NC(=O)C(=O)NCCc2ccc(Cl)cc2)CC(C)(C)N1: 83.8
6) CCn1cc(C(=O)N2CCc3sccc3C2)c(=O)c2ccc(C)nc21: 94.3
7) O=C(c1ccc(CCN2CCCC2)nc1)N1CCN(CCc2ccccc2)CC1: 91.6

Please examine the following record next.
The value of viability at 28.5 h, 10 µM measured for the compound COC(=O)CCC(=O)N1CCC(Cn2cncn2)(C2CCCCC2)CC1 turned out to be 90.8

====

Listing of entries alongside the reported viability at 28.5 h, 10 µM.
- Method description: in vitro
- Run conditions: human, hela cells, % viability
Provide only the numeric value, understood in %.

Worked examples follow.
1. Cc1ccc(S(=O)(=O)Nc2ccc3c(c2)CC(=O)N3)cc1: 92.1
2. COc1ccc(Nc2cc(-c3ccc(SC)cc3)ncn2)c(C)c1: 89.2

Please examine the following record next.
The value of viability at 28.5 h, 10 µM measured for the compound CSCCN1CCN(c2nccnc2OCc2cccnc2)CC1 turned out to be 91

====

Listing of entries alongside the reported viability at 28.5 h, 10 µM.
- Method description: in vitro
- Run conditions: human, hela cells, % viability
Provide only the numeric value, understood in %.

Worked examples follow.
1. O=C(C1CC1)N1C[C@H]2CCCN(S(=O)(=O)c3cccs3)[C@H]2C1 [CBK282255]: 105
2. Cc1cccc(-c2cc(C(=O)Nc3sc4c(c3C#N)CCCCCC4)c3ccccc3n2)c1 [CBK262632]: 103
3. COC(=O)c1ccc2c(c1)C(=O)N(c1ccc(C(=O)OCC(C)C)cc1)C2=O [CBK156802]: 92.1
4. Cc1oc(CSc2nnc(NCc3ccc(F)cc3)s2)cc1C(=O)O [CBK296629]: 91.6

The value of viability at 28.5 h, 10 µM measured for the compound O=C(CCn1c(C(F)F)cc2cccnc21)NCc1cccnc1 [CBK285066] turned out to be 91.9

The value of viability at 28.5 h, 10 µM measured for the compound O=C(Nc1ccccc1O)c1cc(S(=O)(=O)N2CCCCCC2)ccc1Cl [CBK264554] turned out to be 89.1
